Where do the numbers come from? From ChEMBL document CHEMBL1201862.

# Test system: Malme-3M
# protocol_details: NCI tumour cell line growth inhibition, 48 h
Activity calls are given as the source filed them. Cut-off read from the data, not from the text of the source: active = GI50 up to about 1.1 µM and inactive = higher.
metric_name: GI50

Worked cases, answers included:
[
  {
    "compound": "O=C1c2ccccc2C2(O)Nc3c(ccc4ccccc34)C12O (stereo not given)",
    "metric_name": "GI50",
    "result": "> 100 µM (inactive)"
  },
  {
    "compound": "N#CCCN(c1ccc(/C=N/c2nc(-c3ccccc3)cs2)cc1)S(=O)(=O)c1ccccc1",
    "metric_name": "GI50",
    "result": "> 100 µM (inactive)"
  },
  {
    "compound": "C=C1C(OC2O[C@@H]3O[C@@]4(C)CC[C@H]5[C@H](C)CC[C@@H](C2=C)[C@@]35O4)O[C@@H]2O[C@@]3(C)CC[C@H]4[C@H](C)CC[C@@H]1[C@@]24O3 (stereo not given in full)",
    "metric_name": "GI50",
    "result": "> 50 µM (inactive)"
  },
  {
    "compound": "Cc1cc(C)nc(NS(=O)(=O)c2ccc(Nc3c4ccc(Cl)cc4nc4c(C(=O)Nc5ccc(S(N)(=O)=O)cc5)cccc34)cc2)n1",
    "metric_name": "GI50",
    "result": "33 µM (inactive)"
  }
]

Inquiry: Query (compound): `CC1(C)CC(=O)C(Cc2ccccc2)(Cc2ccccc2)C(=O)C1` ; field requested: GI50
Reply text: > 100 µM (inactive)

---

# Test system: MDA-MB-435
# protocol_details: NCI tumour cell line growth inhibition, 48 h
Activity calls are given as the source filed them. Rule as the data show it: active = GI50 up to about 1.1 µM and inactive = higher.
Use one of these outcomes when replying: y = active, n = inactive

Previously resolved entries follow.
[
  {
    "compound": "COCCCN(Cc1cc(OC)c(OC)c(OC)c1)C(=S)Nc1cccc(Cl)c1",
    "label_class": "n"
  },
  {
    "compound": "CCN(CC)CCNc1ccc([N+](=O)[O-])c2nc3ccccc3c(N)c12",
    "label_class": "y"
  },
  {
    "compound": "CC1(C)CCCCCC(C)(CCCO)C1=O (stereo not given)",
    "label_class": "n"
  }
]

Inquiry: In this assay, the call recorded for `Cc1nc(C)c(N2CCN(CN)CC2)c(O)n1` was what?
Reply text: n

Inquiry: Please indicate how the test categorized Cc1c(N)nc(C(CC(N)=O)NCC(N)C(N)=O)nc1C(=O)NC(C(=O)NC(C)C(O)C(C)C(=O)NC(C(=O)NCCc1nc(-c2nc(C(=O)NCCCNC(C)c3ccccc3)cs2)cs1)C(C)O)C(OC1OC(CO)C(O)C(O)C1OC1OC(CO)C(O)C(OC(N)=O)C1O)c1c[nH]cn1 (stereo not given) .
Reply text: n

Inquiry: Please state the recorded outcome for this compound: `O=C(/N=N/c1ccc(Cl)cc1Cl)NNc1ccc(Cl)cc1Cl`
Reply text: n

Inquiry: For `CCOC(=O)/C=C/[C@H](O)[C@@H](O)/C=C/C(=O)OCC` , which call appears in the assay record?
Reply text: n

Inquiry: Hi team, can someone confirm the assay call for CC(=O)NC1C(OCc2ccccc2)OC(CO)C(O)C1OCC(=O)N[C@@H](C)C(=O)N[C@H](CCC(=O)NCCNc1ccc([N+](=O)[O-])c2[nH]c3ccccc3c(=O)c12)C(N)=O (stereo not given in full) ?
Reply text: n

Inquiry: For CC1=NN(c2cc(Cl)c(S(=O)(=O)O)cc2Cl)C2(C1)C(Cl)C(=O)N2c1nc2ccccc2s1 (stereo not given) , which call appears in the assay record?
Reply text: n

Inquiry: How did this test come out for `CN(C)/C=C/C=C(/C=N/S(=O)(=O)C(F)(F)F)C1C=CN(S(=O)(=O)C(F)(F)F)C=C1` ?
Reply text: n

Inquiry: Name the outcome recorded for C=CCN1CCC(O)(c2cc(C(=O)OCC)[nH]c2-c2cc(C)no2)C1 (stereo not given) in the assay.
Reply text: n

Inquiry: Given `O=C(c1ccccc1)c1ccc2c(c1)NC(=O)c1ccccc1SSc1ccccc1C(=O)N2` , state the outcome it received in this test.
Reply text: n

Inquiry: Check the results log: what was the call for COC(=O)c1ccccc1C1CN=NC12Cc1cc(C)ccc1C2=O (stereo not given) ?
Reply text: n

Inquiry: State the result this test recorded for O=C(CC(C(=O)c1ccco1)c1ccsc1)c1ccco1 (stereo not given) .
Reply text: n

Inquiry: What was the test verdict on `Nc1nc(Cl)cc(Nc2cc(Cl)cc(Cl)c2)n1` ?
Reply text: n

Inquiry: Can you look up the reported call for `O=c1c(C(c2cnc3ccccc3c2)c2c(O)oc3ccccc3c2=O)c(O)oc2ccccc12` for me?
Reply text: n

Inquiry: Call for entry `Cn1c2ccc(Cl)cc2c2ccc3c(c21)C(=O)C=CC3=O` :
Reply text: n

Inquiry: Each compound tested received a call. Report the one for `Oc1ccc2ccccc2c1/C=C/c1ccc2c(Br)cc(Br)c(O)c2n1` .
Reply text: n

Inquiry: Which outcome did this test record for the compound `c1ccc(C(C2=Nc3cccc4cccc(c34)N2)c2ccccc2)cc1` ?
Reply text: n

Inquiry: Short answer needed: outcome of this test for `Oc1c(C2=N[C@H]3CCCC[C@@H]3N2)ccc2ccccc12` ?
Reply text: n

---

# Test system: MCF7
# protocol_details: NCI tumour cell line growth inhibition, 48 h
The source made the active and inactive calls. No stated cut-off is given here; in the data, active = GI50 up to about 1.1 µM and inactive = higher.
Give one outcome, nothing more. List: true (active), false (inactive)

Reference set, count: 10
[
  {
    "molecule": "Cc1c2c3ccccc3nc-2n(C)c2ccccc12",
    "test_system": "MCF7",
    "label_class": "false"
  },
  {
    "molecule": "Nc1c(Cl)cc(-c2nc3ccccc3s2)cc1Cl",
    "test_system": "MCF7",
    "label_class": "true"
  },
  {
    "molecule": "CCCc1nc(Cl)c(Cl)c(Cl)n1",
    "test_system": "MCF7",
    "label_class": "false"
  },
  {
    "molecule": "COc1cc(C2c3cccc4cccc(c34)C3CCC(=O)N32)cc(OC)c1O (configuration not stated)",
    "test_system": "MCF7",
    "label_class": "false"
  },
  {
    "molecule": "CC[C@H](C)C1=C(O)[N@+]2([O-])Oc3ccc(-c4c(O)c(O)c(-c5ccc(OC(C)=O)cc5)c(OC(C)=O)c4OC(C)=O)cc3O[C@]2([C@@H](C)CC)C(=O)N1O",
    "test_system": "MCF7",
    "label_class": "false"
  },
  {
    "molecule": "C/C=C/C1OC(O)(C(C)C(O)[C@H](C)C2OC(=O)/C(OC)=C/C(C)=C/[C@@H](C)[C@@H](O)[C@@H](C)C(O)C(C)C/C(C)=C/C=C/C2OC)C[C@@H](OC2CC(O)C(OC(N)=O)C(C)O2)C1C (some centres not stated)",
    "test_system": "MCF7",
    "label_class": "true"
  },
  {
    "molecule": "Fc1sc2c(c1F)C1CCC2C1 (configuration not stated)",
    "test_system": "MCF7",
    "label_class": "false"
  },
  {
    "molecule": "COC(=O)C1=C(O)C(C(=O)OC)[C@]2(O)[C@H](C(=O)OC)[C@H]1C[C@@H](c1ccc(Cl)cc1)[C@H]2C(=O)OC (some centres not stated)",
    "test_system": "MCF7",
    "label_class": "false"
  },
  {
    "molecule": "CC(C)(C)OC(=O)N(CCCCNC(=O)OCc1ccccc1)CCCNC(=O)OCc1ccccc1",
    "test_system": "MCF7",
    "label_class": "false"
  },
  {
    "molecule": "Oc1ccc2ccccc2c1/C=C/c1ccc2c(Br)cc(Br)c(O)c2n1",
    "test_system": "MCF7",
    "label_class": "false"
  }
]

Inquiry: I'd appreciate the recorded outcome for Cc1c(N)nc([C@H](CC(N)=O)NC[C@H](N)C(N)=O)nc1C(=O)N[C@H](C(=O)N[C@H](C)[C@@H](O)[C@H](C)C(=O)N[C@H](C(=O)NCCc1nc(-c2nc(C(=O)NCCC[S+](C)C)cs2)cs1)[C@@H](C)O)C(OC1OC(CO)C(O)C(O)C1OC1OC(CO)C(O)C(OC(N)=O)C1O)c1c[nH]cn1 (some centres not stated) from this test.
Reply text: false

Inquiry: Fill in: this test's call for COc1cc(S(=O)(=O)Nc2ccc(-c3csc(N4C(=O)C(Cl)C4c4cccs4)n3)cc2)ccc1Cl (configuration not stated) is ___
Reply text: false

Inquiry: Hi, do you know how N#CC(Cc1ccccc1)N(CCC1=CCCCC1)C(c1ccccc1)c1ccccc1 (configuration not stated) came out in this test?
Reply text: false

Inquiry: Outcome logged for CC1(C)CCCCCC(C)(CCCO)C1=O (configuration not stated) in this assay:
Reply text: false

---

# Tested on: SNB-75
# protocol_details: NCI tumour cell line growth inhibition, 48 h
Activity calls are given as the source filed them. Cut-off read from the data, not from the text of the source: active = GI50 up to about 1.1 µM and inactive = higher.
Pick one: active, inactive

Some solved entries appear below for comparison.
[
  {
    "compound": "Cc1cc(C)nc(NS(=O)(=O)c2ccc(Nc3c4ccc(Cl)cc4nc4c(C(=O)Nc5ccc(S(N)(=O)=O)cc5)cccc34)cc2)n1",
    "label_class": "inactive"
  },
  {
    "compound": "COC(=O)NCCc1n[nH]c2c1C(=O)C=C(N1CCOCC1)C2=O",
    "label_class": "inactive"
  },
  {
    "compound": "CCN(CC)CCNc1ccc([N+](=O)[O-])c2nc3ccccc3c(N)c12",
    "label_class": "inactive"
  },
  {
    "compound": "Cc1cccc2cc3c(ccc4ccccc43)c[n+]12",
    "label_class": "inactive"
  },
  {
    "compound": "CC(C)=CCC[C@@H](C)C1=C(Nc2ccccc2Cl)C(=O)C(C)=C(O)C1=O",
    "label_class": "inactive"
  },
  {
    "compound": "O=C(CCc1nnc2s/c(=C\\c3ccccc3)c(=O)n12)Nc1cc(Cl)ccc1Cl",
    "label_class": "inactive"
  }
]

Inquiry: Write down the call the test reported for this compound. Item: CNC(=O)SCC(NC(=O)CCC(N)C(=O)O)C(=O)NCC(=O)O (stereo not drawn)
Reply text: inactive

Inquiry: Each compound tested received a call. Report the one for CC(C)=CCC12Cc3ccc(O)cc3C(C(C)CN1)C2C (stereo not drawn) .
Reply text: inactive

Inquiry: Which outcome was entered for the compound CN(C)CC1CCC/C(=C\c2ccc(N(C)C)cc2)C1=O (stereo not drawn) in this test?
Reply text: inactive

Inquiry: Test call, this compound: `CCNC(=O)N(CC)CN(CC)C(=O)NCC`
Reply text: inactive

Inquiry: Call for entry Cc1c(N)nc(C(CC(N)=O)NCC(N)C(N)=O)nc1C(=O)NC(C(=O)NC(C)C(O)C(C)C(=O)NC(C(=O)NCCc1nc(-c2nc(C(=O)NCCCNC(C)c3ccccc3)cs2)cs1)C(C)O)C(OC1OC(CO)C(O)C(O)C1OC1OC(CO)C(O)C(OC(N)=O)C1O)c1c[nH]cn1 (stereo not drawn) :
Reply text: active

Inquiry: Outcome logged for `CCOC(=O)C1=C(Nc2cccc3ccccc23)OC/C1=N\NC(=O)c1ccccc1O` in this assay:
Reply text: inactive

Inquiry: Any idea what this test logged for `Cc1nc(O)nc(N(CCO)/N=C/c2ccc(Cl)cc2)c1C(=O)Nc1ccc(Cl)cc1` ?
Reply text: inactive
